# tested on: cruzain (Trypanosoma cruzi)
# Sequence (P25779 123-337 limits assumed): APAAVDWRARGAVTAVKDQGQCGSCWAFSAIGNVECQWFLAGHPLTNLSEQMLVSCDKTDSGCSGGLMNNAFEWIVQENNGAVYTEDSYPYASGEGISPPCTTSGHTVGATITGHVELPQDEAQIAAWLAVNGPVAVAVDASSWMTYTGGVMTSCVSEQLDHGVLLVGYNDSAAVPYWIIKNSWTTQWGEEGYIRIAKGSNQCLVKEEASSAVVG
# measurement protocol: biochemical
# recorded conditions: read-out: Inhibition at 100 µM (Mean ± SEM %) Cruzain 10′ inc, 100 µM, 10′ pre-incubation, solid samples
value type: inhibition at 100 µM (%)
Report only the number, with the unit % understood.

Prompt: May I ask what inhibition at 100 µM has been recorded for Cn1ccnc1CNCCS(=O)(=O)c1cccc(Nc2ccc(-c3cccc(F)c3)cn2)c1 [MMV688466] ?
Completion: 98

Prompt: What about this compound? CN1CCN(S(=O)(=O)c2ccc(-c3ccc4c(Nc5ccc6nn[nH]c6c5)ccnc4c3)cc2)CC1 [MMV687246]
Completion: 92

Prompt: What about this compound? N#Cc1ccc(-c2cnc(N)c(-c3ccc(C(N)=O)cc3)n2)cc1 [MMV085499]
Completion: 0

Prompt: What about this compound? O=C(NCCN1CCCC1)c1cc(NCCCCN2CCC(F)(F)CC2)nc2ccc(Cl)cc12 [MMV667494]
Completion: 70

Prompt: What about this compound? N=C(N)Nc1ccc(-c2ccc(-c3ccc(NC(=N)N)cc3Cl)o2)c(Cl)c1 [MMV688179]
Completion: 100

Prompt: What about this compound? CN1CCN(CCCOc2ncc(Nc3ncc(-c4ccc(C(F)(F)F)c(F)c4)nc3C(N)=O)cn2)CC1 [MMV687812]
Completion: 95

Prompt: What about this compound? COc1ccc(C2=NN(C3CCCCCC3)C(=O)C2(C)C)cc1OCCCCOc1ccc(-c2nn[nH]n2)cc1 [MMV690028]
Completion: 100

Prompt: What about this compound? COc1cc(C2=NCCN2)cc2cc(-c3ccc(C4=NCCN4)cc3)oc12 [MMV688362]
Completion: 100

Entry source: paper PMC9967275
